# System: Klebsiella pneumoniae
# TEST DETAILS: Antibacterial activity against Klebsiella pneumoniae ATCC 13883 measured after 18 hrs by CLSI broth dilution method
# Format: functional
# MEASUREMENT CONTEXT: ATCC 13883, 18 h
TEST READOUT: MIC

- COMPOUND: "C[Si]1(C)OB(O)c2ccc(C=O)c(F)c21"
  MIC: "> 400 µg/mL"
- COMPOUND: "C[Si]1(C)OB(O)c2ccc(Cl)c(Cl)c21"
  MIC: "400 µg/mL"

Problem: Which MIC value is on record for C[Si]1(C)OB(O)c2c(F)c3c(c(F)c21)B(O)OC3 ?
Result: 200 µg/mL

Problem: Item under review: C[Si]1(C)OB(O)c2cc(C=O)cc(F)c21 . Reported MIC?
Result: > 400 µg/mL

Problem: Reported MIC for C[Si]1(C)OB(O)c2c(F)c(F)c(F)c(F)c21 : what is it?
Result: > 400 µg/mL

Problem: Which MIC is listed for C[Si]1(C)OB(O)c2ccc(C(F)(F)F)cc21 ?
Result: > 400 µg/mL

Problem: Please give the measured MIC for this compound: C[Si]1(C)OB(O)c2cccc(F)c21
Result: > 400 µg/mL

Problem: I have this compound here, C[Si]1(C)OB(O)c2ccc(F)cc21 , and I need its recorded MIC.
Result: > 400 µg/mL

Problem: Please give the measured MIC for this compound: C[Si]1(C)OB(O)c2c(C=O)cc(F)c(F)c21
Result: > 400 µg/mL

Problem: Give its MIC value. Item: C[Si]1(C)OB(O)c2cc(B(O)O)cc(F)c21
Result: > 400 µg/mL

Problem: State the recorded MIC for this entry: C[Si]1(C)OB(O)c2cccc(B(O)O)c21
Result: > 400 µg/mL

Problem: Please report the recorded MIC for O=C1CN(/N=C/c2ccc([N+](=O)[O-])o2)C(=O)N1 [NITROFURANTOIN] .
Result: 32 µg/mL

Problem: Name the recorded MIC for C[Si]1(C)OB(O)c2ccccc21 .
Result: > 200 µg/mL

Problem: Entry under review: C[Si]1(C)OB(O)c2ccc(F)c(F)c21 . Reported MIC?
Result: > 400 µg/mL

Problem: What value of MIC has been recorded for this entry: C[Si]1(C)OB(O)c2ccc(B(O)O)cc21
Result: > 400 µg/mL

Problem: What does the data say about its MIC? Entry: C[Si]1(C)OB(O)c2ccc(Cl)cc21
Result: 400 µg/mL

Problem: Recorded MIC for C[Si]1(C)OB(O)c2cc(F)c(F)cc21 , please?
Result: > 400 µg/mL

Problem: Please give the measured MIC for this compound: C[Si]1(C)OB(O)c2cc(F)c(C=O)c(F)c21
Result: > 400 µg/mL

Problem: Reported MIC, compound C[Si]1(C)OB(O)c2cc(F)c(CO)c(F)c21 : ____
Result: > 400 µg/mL

Problem: Look up MIC: C[Si]1(C)OB(O)c2cc3c(c(F)c21)COB3O
Result: > 400 µg/mL

* * *

# Tested on: Klebsiella pneumoniae ATCC BAA-1705
# TEST DETAILS: Inhibition of beta lactamase KPC-2 in Klebsiella pneumoniae ATCC BAA 1705 assessed as potentiation of ceftazidime-induced antibacterial activity by measuring ceftazidime MIC at 16 mg/L incubated for 18 hrs by broth dilution method
TEST READOUT: MIC (µg/mL)
Entry rule: numbers only, all in µg/mL.

- SMILES NOTATION: "C[Si]1(C)OB(O)c2c(F)c(F)c(F)c(F)c21"
  SYSTEM: "Klebsiella pneumoniae ATCC BAA-1705"
  UNIT TAG: "µg/mL"
  NUMBER: 64
- SMILES NOTATION: "C[Si]1(C)OB(O)c2ccc(B(O)O)cc21"
  SYSTEM: "Klebsiella pneumoniae ATCC BAA-1705"
  UNIT TAG: "µg/mL"
  NUMBER: 64
- SMILES NOTATION: "C[Si]1(C)OB(O)c2cc3c(c(F)c21)COB3O"
  SYSTEM: "Klebsiella pneumoniae ATCC BAA-1705"
  UNIT TAG: "µg/mL"
  NUMBER: 64
- SMILES NOTATION: "OB(O)c1ccccc1"
  SYSTEM: "Klebsiella pneumoniae ATCC BAA-1705"
  UNIT TAG: "µg/mL"
  NUMBER: 32
- SMILES NOTATION: "C[Si]1(C)OB(O)c2ccc(F)c(F)c21"
  SYSTEM: "Klebsiella pneumoniae ATCC BAA-1705"
  UNIT TAG: "µg/mL"
  NUMBER: 64

Problem: Please report the recorded MIC for C[Si]1(C)OB(O)c2c(F)c3c(c(F)c21)B(O)OC3 .
Result: 64
